MEASUREMENT TARGET: norovirus GII.3 TCH strain virus-like particle (VLP) (norovirus GII.3 TCH strain)
PROTOCOL NOTES: BLI (BLItz), biotinylated peptide on SA chip, VLP in solution
Ends that are not written are not given here.
For each entry below, report its koff value.
One number for each entry, in s⁻¹.

[[record]]
binder = "CKARSARGVS (also: biotinylated via PEG3 (AEEEA)-Trp spacer, attachment site and resin-derived C-terminal Lys or Cys not given here) [norovirus-binding peptide of SEQ ID NO: 288]"
value_measured = 0.0143

[[record]]
binder = "ANYRWSRSIK (also: biotinylated via PEG3 (AEEEA)-Trp spacer, attachment site and resin-derived C-terminal Lys or Cys not given here) [norovirus-binding peptide of SEQ ID NO: 263]"
value_measured = 0.049


Answer for every listed entry: what is its koff? The entries follow.
1. FVWSRRTGLY (also: biotinylated via PEG3 (AEEEA)-Trp spacer, attachment site and resin-derived C-terminal Lys or Cys not given here) [norovirus-binding peptide of SEQ ID NO: 205]
2. RFLVPVVKVM (also: biotinylated via PEG3 (AEEEA)-Trp spacer, attachment site and resin-derived C-terminal Lys or Cys not given here) [norovirus-binding peptide of SEQ ID NO: 103]
3. FVWRRRAGLY (also: biotinylated via PEG3 (AEEEA)-Trp spacer, attachment site and resin-derived C-terminal Lys or Cys not given here) [norovirus-binding peptide of SEQ ID NO: 167]

1. 0.0325
2. 0.017
3. 0.00435

Name the reported koff value associated with the binder RSMSLHVSMT (also: biotinylated via PEG3 (AEEEA)-Trp spacer, attachment site and resin-derived C-terminal Lys or Cys not given here) [norovirus-binding peptide of SEQ ID NO: 283]
0.00715
